# System: MCF7
# METHOD: Cytotoxicity against human MCF7 cells after 96 hrs by sulforhodamine B assay
# Assay type: functional, cell-based
Below, each entry is listed with its recorded log10 IC50.
Transform log10 | Measure IC50 | Unit µmol

Ask: # get_value(readout='log10 IC50', item= COC(=O)[C@@]1(C)CC[C@]2(C)CC[C@]3(C)C(=CC(=O)[C@@H]4[C@@]5(C)CC[C@H](OC(=O)CNCCCCN)C(C)(C)[C@@H]5CC[C@]43C)[C@@H]2C1 )
Result: 0.39

Ask: Follow-up entry: CC1(C)[C@@H](O)CC[C@]2(C)[C@H]3C(=O)C=C4[C@@H]5C[C@@](C)(C(=O)O)CC[C@]5(C)CC[C@@]4(C)[C@]3(C)CC[C@@H]12
Result: 1.93

Ask: Follow-up entry: COC(=O)[C@@]1(C)CC[C@]2(C)CC[C@]3(C)C(=CC(=O)[C@@H]4[C@@]5(C)CC[C@H](OC(=O)CNCCCCCCCN)C(C)(C)[C@@H]5CC[C@]43C)[C@@H]2C1
Result: -0.01

Values from ChEMBL document CHEMBL1629466
